The values you see were collected from ChEMBL document CHEMBL1144685.

- Assay remarks: Volume of distribution at steady state in Sprague-Dawley rat at 0.5 mg/kg, iv
- Assay type: ADME, organism-based
- Design: dose 0.5 mg/kg, route intravenous
- Measurement context: in vivo, read-out: Vdss
Parameter: Vd (L/kg)
Please give a number only; it is taken to be in L/kg.

Vd for COc1cc2nccc(Oc3ccc4c(C(=O)Nc5cc(C)no5)cccc4c3)c2cc1OC ?
2.7

* * *

- System: NIH3T3
- Assay remarks: Inhibition of CSF1-induced proliferation of BALB/c mouse 3T3 cells
- Format: functional, cell-based
Parameter: pIC50
When answering, recall that pIC50 equals minus log10 of the concentration in mol/L, and write that number alone.

pIC50 for COc1cc2nccc(Oc3ccc4c(C(=O)Nc5ccc(Cl)cc5)cccc4c3)c2cc1OC ?
7.60
